Recorded TGI values for a group of compounds are listed next.
test system: HT29 colon; assay: NCI tumour cell line growth inhibition, 48 h

Compound	TGI
C/C(=C\COP(=O)(O)OP(=O)(O)O)CC/C=C(\C)CNc1ccc([N+](=O)[O-])cc1	> 100 µM
C=CC1(c2ccc(Br)cc2)OCCCO1	> 100 µM
C[C@H](CCC1=NCCN1)[C@H]1CC[C@H]2[C@@H]3CC[C@@H]4C[C@H](O)CC[C@]4(C)[C@H]3CC[C@]12C	3.65 µM

[Q] Entry C=C1CC(COc2ccc3ccc(=O)oc3c2)(c2ccccc2)OC1=O (stereo not given) , system HT29 colon: what TGI was measured?
[A] 2.27 µM

[Q] Next entry: O=c1[nH]n(Cc2ccccc2CCl)c2ccc([N+](=O)[O-])cc12
[A] > 100 µM

The values you see were collected from PubChem BioAssay (NCI).
